- Measurement Notes: chemical genetic growth profiling, strain panel (AID 1159580);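 note: tested at 20 µM; growth read once vehicle control cultures reached saturation at 30 °C; lower values mean less growth of the strain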
- Condition Description: S. cerevisiae deletion strains, growth OD, locus YIL125W, strain kgd1
Among all 5,500 compounds or so, about 2,000 (36%) were called active. About 18% were inconclusive and are not listed. Cut-off read from the data, not from the text of the source: active = normalized growth mostly below about 0.91 (no sharp cut-off); inconclusive = no clear call, values can overlap the other calls; inactive = mostly above about 0.92. The list shows a part of the results.
Output constraint: value belongs to active, inactive

{"Compound": "CC1=CCc2c(cc3oc(C)cc(=O)c3c2O)OC1", "Cat": "inactive"}
{"Compound": "Cc1cc(=O)c2c(o1)-c1c(cc(O)c(O)c1C(=O)O)OC2", "Cat": "inactive"}
{"Compound": "CCN(CC)CCNc1ccc(CO)c2sc3ccccc3c(=O)c12", "Cat": "inactive"}
{"Compound": "C=C1C2CC[C@@]3(C)[C@H](c4ccoc4)OC(=O)C[C@]13O[C@H]1CC(=O)C(C)(C)[C@H](C(O)C(=O)OC)[C@@]21C (stereo not given in full)", "Cat": "inactive"}

Next:
Query :: What call does the record list for Cc1cc(=O)c2c(O)c3c(cc2o1)OCC(C)CC3 (stereo not given) ?
Result :: active
